Hi there, I'd appreciate the recorded cell viability for every entry that follows.
- Tested on: Vero E6
- ASSAY TEXT: cell viability relative to DMSO; higher = less toxic
- MEASUREMENT PARAMETERS: 72 h; 100 nM
Numbers only, in %.

{"SMILES REPR": "CC(C)(C)c1cc(O)c(C(C)(C)C)cc1O", "REPORTED VALUE": 103}
{"SMILES REPR": "CCCCC1=NC2(CCCC2)C(=O)N1Cc1ccc(-c2ccccc2-c2nnn[nH]2)cc1", "REPORTED VALUE": 99.7}
{"SMILES REPR": "CC(C)N(CCC(=O)c1ccc2ccccc2c1)Cc1ccccc1", "REPORTED VALUE": 99}

// for each molecule in input: emit cell viability
1. CC(C)(CO)[C@@H](O)C(=O)NCCC(=O)O
2. Cc1ccc(/N=C/N(C)/C=N/c2ccc(C)cc2C)c(C)c1

**A:**
1: 95; 2: 95.8
